B1: CHMP4C (parent)
chain: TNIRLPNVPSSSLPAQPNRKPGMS

variants of: B1; assay: protein stability index of a GFP-peptide fusion (GPS, HEK-293T) (PSI 1-6); higher = more stable; settings: c terminus: a fixed tail appended;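 also: lentivirally expressed fusions sorted by FACS into six bins by GFP to DsRed ratio, PSI derived from sequencing read proportions per bin multiplied by bin number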
outcome_measure: protein stability index

Worked examples follow.
change	protein stability index
L5T	4.74
T1M	4.17
S24G	4.14
Q16Y	3.99
P14V	4.93
P21H	4.45

Next item in the queue.
Query: Quick one: protein stability index of `S11W` ?
Response: 3.97
